Each recorded value in this set is attributed to patent US20260242478A1.

Biological target: T1, PSMA Fab (biotinylated (site not stated))
T1 construct: Biotinylated PSMA Fab captured on neutravidin plates for the clonal phage ELISA; also called Anti-PSMA Fab; 006 PSMA Fab
Assay: clonal phage ELISA on biotinylated PSMA Fab captured on neutravidin, blocking buffer alone, anti-M13 HRP detection;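 also: clonal phage were tested as crude supernatants, and the signal reflects phage still bound to the wells after washing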
measurement_label: Phage binding ELISA signal, Anti-PSMA Fab
Please give the numeric answer without any surrounding text.

Past entries and their recorded results:
[
  {
    "binder": "VQTRCVPAWMCDGF [Phage-3971]",
    "reported": 0.782
  },
  {
    "binder": "DARMCIPMWMCQAF [Phage-3977]",
    "reported": 0.742
  },
  {
    "binder": "STLLCTPEWMCFGM [Phage-3969]",
    "reported": 0.789
  },
  {
    "binder": "LSVECIPVWMCNGF [Phage-3979]",
    "reported": 0.732
  },
  {
    "binder": "EYRECVPDWMCSGF [Phage-3980]",
    "reported": 0.731
  }
]

Continue with the binder presented below.
// returns reported Phage binding ELISA signal, Anti-PSMA Fab for input GFRTCVPSWMCTGF [Phage-3978]
0.734
